assay: chemical genetic growth profiling, strain panel (AID 1159580);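 note: tested at 20 µM; growth read once vehicle control cultures reached saturation at 30 °C; 1 = growth at the plate median or of vehicle wells; lower values mean less growth of the strain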; conditions: S. cerevisiae deletion strains, growth OD, locus YKL190W, strain CNB1, hits give low values
Screen size: about 5,500 compounds; about 2,000 (36%) were called active. Inconclusive results (about 18%) are left out. Some of the results follow.
Overview of reported normalized growth across a group of compounds:
Quick one: just the number, no unit, thanks!

Please review the entries below; each comes with its answer.
CCC1OC(=O)[C@H](C)C(=O)[C@H](C)[C@@H](OC2O[C@H](C)C[C@H](N(C)C)[C@H]2O)[C@](C)(OC)C2(CCCn3cnc(-c4cccnc4)c3)C[C@@H](C)C(=O)[C@H](C)[C@H]3N(C2)C(=O)O[C@]13C (stereo partly drawn) = 1
C[N+](C)(C)CC(O)CC(=O)O (stereo not drawn) = 1.01
CCC(c1ccc(O)cc1)C(CC)c1ccc(O)cc1 (stereo not drawn) = 0.994
CC1(C)C2CC(=O)[C@]3(C)C(CC[C@@]4(C)[C@H](c5ccoc5)OC(=O)[C@H]5O[C@]543)[C@@]2(C)C(=O)C[C@H]1O (stereo partly drawn) = 1.01
CN1C(C)(C)CCCC1(C)C = 1.01

Q) Returns the measured normalized growth for the input compound. Input: CN(C)c1nc(N)c(C(=O)N=C(N)N)nc1Cl
A) 1.01

Q) Any idea what its normalized growth is? The compound is CCc1cc(C(N)=S)ccn1
A) 0.991

Q) Entry CC(=O)[C@@]1(O)CCC2C3C[C@H](C)C4=CC(=O)C=CC4(C)[C@@]3(F)[C@@H](O)C[C@@]21C (stereo partly drawn) : reported normalized growth = ?
A) 0.988

Q) # input compound: CCc1cccc(CC)c1N(COC)C(=O)CCl ; wanted: its normalized growth
A) 0.992

Q) Fill in the blank: the reported normalized growth of CN[C@@H]1C(O)[C@@H](O[C@@H]2[C@@H](O)[C@H](O[C@H]3OC(CN)=CC[C@H]3N)[C@@H](N)C[C@H]2N)OC[C@]1(C)O (stereo partly drawn) is ____.
A) 1.02

###

Quick reference for normalized growth among some compounds
assay: chemical genetic growth profiling, strain panel (AID 1159580);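 note: tested at 20 µM; growth read once vehicle control cultures reached saturation at 30 °C; 1 = growth at the plate median or of vehicle wells; lower values mean less growth of the strain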; details: S. cerevisiae deletion strains, growth OD, locus YPL055C, strain LGE1, hits give low values
Among all 5,500 compounds or so, about 2,000 (36%) were called active. Not shown: some 18% with an inconclusive outcome. This is one part of the list.
API note: the answer field is a bare number with no unit suffix.

CCCCCCCCCC[Si](C)(C)CCC(=O)NC(Cc1ccc(C)cc1)c1ccccc1 (stereo not given) = 1
CCCCOc1cc(C(=O)NCCN(CC)CC)c2ccccc2n1 = 1.02
CC(=O)O[C@@H]1CC(=O)[C@@]2(C)C(CC(=O)[C@]3(C)C2CC[C@@]2(C)[C@H](c4ccoc4)OC(=O)C4OC423)C1(C)C (stereo not given in full) = 0.989
CCC(=O)c1c(O)cc(O)cc1O = 1.02
N[C@@H](COP(=O)(O)O)C(=O)O = 1.01

Q) Recorded normalized growth for NS(=O)(=O)c1cc(C2(O)NC(=O)c3ccccc32)ccc1Cl (stereo not given) , please?
A) 1.02

Q) Recorded normalized growth of COc1cc(OC)c2ccc(=O)oc2c1 , please.
A) 0.971

Q) Sample Cc1cn([C@H]2C=C[C@@H](CO)O2)c(=O)[nH]c1=O — what was its normalized growth?
A) 0.974

Q) Param item = CO[C@@]1(NC(=O)C(C(=O)O)c2ccc(O)cc2)C(=O)N2C(C(=O)O)=C(CSc3nnnn3C)CO[C@@H]21 (stereo not given in full) ; retrieve measured normalized growth.
A) 1.02

Q) GET /values?readout=normalized growth&item= Oc1ccc(-c2nc(-c3ccc(F)cc3)c(-c3ccncc3)[nH]2)cc1
A) 1.02

Q) Fill in the blank: the reported normalized growth of CC1O[C@@H](Oc2c(-c3ccc(O)c(O)c3)oc3cc(O)cc(O)c3c2=O)[C@H](O)[C@H](O)[C@H]1O (stereo not given in full) is ____.
A) 0.974

Q) # normalized growth lookup, item O=c1c(O)c(-c2ccc(O)cc2O)oc2cc(O)cc(O)c12
A) 1

Q) Query: normalized growth; subject: Cc1ccc(-c2csc(-c3ccc(Oc4ccc(C(F)(F)F)cn4)cc3)n2)c(C)c1
A) 1.01

Q) Could you share which normalized growth value was measured for CSc1cccc(NC(=S)N=CN(C)C)c1 ?
A) 1.02
